The values you see were collected from patent US20190100534A1.

system: CF (RR -1); test: MIC determination; type: cell-based, Citrobacter freundii; conditions: CAMH broth, 20 μM Apo-Transferrin, 37° C., 18 hours
reported property: Mimimum Inhibitory Concentrations, CF (RR -1)

(Q) Quick one: Mimimum Inhibitory Concentrations, CF (RR -1) for CC(C)(O/N=C(\C(=O)N[C@@H]1C(=O)N2C(C(=O)O)=C(C=Cc3ccc(C[n+]4ccc5cc(O)c(O)cc5c4)cc3)CS[C@H]12)c1csc(N)n1)C(=O)O (mixture of isomers) ?
(A) ≤0.06 microgram/mL

(Q) Quick one: Mimimum Inhibitory Concentrations, CF (RR -1) for CC(C)(O/N=C(\C(=O)N[C@@H]1C(=O)N2C(C(=O)O)=C(C=Cc3ccc(C[N+]4(C)CCc5c(Cl)c(O)c(O)c(Cl)c5C4)cc3)CS[C@H]12)c1csc(N)n1)C(=O)O (mixture of isomers) ?
(A) ≤0.06 microgram/mL

(Q) Quick one: Mimimum Inhibitory Concentrations, CF (RR -1) for CC(C)(O/N=C(\C(=O)N[C@@H]1C(=O)N2C(C(=O)O)=C(C=Cc3ccc(C[n+]4ccc(-c5ccc(O)c(O)c5)cc4)cc3)CS[C@H]12)c1csc(N)n1)C(=O)O (mixture of isomers) ?
(A) ≤0.06 microgram/mL

---

Catalogue of MIC values
tested on: Isogenic E. coli J58 strain carrying VIM-2; experiment: MIC determination, isogenic E. coli strains; format: cell-based; conditions: Escherichia coli, 18 h, read-out: Mimimum Inhibitory Concentrations, VIM-2
Field: numeric (µg/mL). Do not append units.

compound	reported property	reported value
CC(C)(O/N=C(\C(=O)N[C@@H]1C(=O)N2C(C(=O)O)=C(C=Cc3ccc(C[n+]4ccc(NC(=O)c5ccc(O)c(O)c5)cc4)cc3)CS[C@H]12)c1csc(N)n1)C(=O)O (mixture of isomers) [Compound 427]	MIC	1
CC(C)(O/N=C(\C(=O)N[C@@H]1C(=O)N2C(C(=O)O)=C(C=Cc3ccc(C[N+](C)(C)Cc4cc(O)c(O)c(Cl)c4)cc3)CS[C@H]12)c1csc(N)n1)C(=O)O (mixture of isomers) [Compound 436]	MIC	1

(Q) Quick one: MIC for CC(C)(O/N=C(\C(=O)N[C@@H]1C(=O)N2C(C(=O)O)=C(/C=C/c3ccc(C[n+]4ccn(-c5ccc(O)c(O)c5)c4)cc3)CS[C@H]12)c1csc(N)n1)C(=O)O [Compound 414] ?
(A) 1

(Q) Quick one: MIC for Cc1c[n+](Cc2ccc(C=CC3=C(C(=O)O)N4C(=O)[C@@H](NC(=O)/C(=N\OC(C)(C)C(=O)O)c5csc(N)n5)[C@H]4SC3)cc2)ccc1-c1ccc(O)c(O)c1 (mixture of isomers) [Compound 422] ?
(A) 1

(Q) Quick one: MIC for CC(C)(O/N=C(\C(=O)N[C@@H]1C(=O)N2C(C(=O)O)=C(C=Cc3ccc(C[n+]4cccc(-c5ccc(O)c(O)c5)c4)cc3)CS[C@H]12)c1csc(N)n1)C(=O)O (mixture of isomers) [Compound 413] ?
(A) 0.5

(Q) Quick one: MIC for Cn1c[n+](Cc2ccc(C=CC3=C(C(=O)O)N4C(=O)[C@@H](NC(=O)/C(=N\OC(C)(C)C(=O)O)c5csc(N)n5)[C@H]4SC3)cc2)cc1C(=O)Nc1ccc(O)c(O)c1 (mixture of isomers) [Compound 411] ?
(A) 2

---

test system: Pseudomonas aeruginosa PA (RR-1); experiment: MIC determination; assay type: cell-based; conditions: Pseudomonas aeruginosa; PA (RR-1); CAMH broth, 20 μM Apo-Transferrin, 37° C., 18 hours; read-out: Minimum Inhibitory Concentrations, PA (RR-1)
reported property: MIC (µg/mL)
Field: numeric (µg/mL). Do not append units.

# example entries with known answers
compound	unit name	MIC
Cn1c[n+](Cc2ccc(C=CC3=C(C(=O)O)N4C(=O)[C@@H](NC(=O)/C(=N\OC(C)(C)C(=O)O)c5csc(N)n5)[C@H]4SC3)cc2)cc1C(=O)Nc1ccc(O)c(O)c1 (mixture of isomers) [Compound 411]	µg/mL	4
CC(C)(O/N=C(\C(=O)N[C@@H]1C(=O)N2C(C(=O)O)=C(C=Cc3ccc(C[N+]4(C)Cc5cc(O)c(O)c(Cl)c5C4)cc3)CS[C@H]12)c1csc(N)n1)C(=O)O (mixture of isomers) [Compound 432]	µg/mL	1
Cc1c[n+](Cc2ccc(C=CC3=C(C(=O)O)N4C(=O)[C@@H](NC(=O)/C(=N\OC(C)(C)C(=O)O)c5csc(N)n5)[C@H]4SC3)cc2)ccc1-c1ccc(O)c(O)c1 (mixture of isomers) [Compound 422]	µg/mL	4
CC(C)(O/N=C(\C(=O)N[C@@H]1C(=O)N2C(C(=O)O)=C(C=Cc3ccc(C[N+](C)(C)Cc4ccc(O)c(O)c4Cl)cc3)CS[C@H]12)c1csc(N)n1)C(=O)O (mixture of isomers) [Compound 434]	µg/mL	1

Next compound, MIC to be filled in.
(Q) Short answer please: MIC, Pseudomonas aeruginosa PA (RR-1), entry CC(C)(O/N=C(\C(=O)N[C@@H]1C(=O)N2C(C(=O)O)=C(C=Cc3ccc(C[N+]4(C)CCc5ccc(O)c(O)c5C4)cc3)CS[C@H]12)c1csc(N)n1)C(=O)O (mixture of isomers) [Compound 442]
(A) 0.5

---

tested on: Isogenic E. coli J58 strain carrying VIM-2; assay: MIC determination, isogenic E. coli strains; assay type: cell-based; settings: Escherichia coli, 18 h, read-out: Mimimum Inhibitory Concentrations, VIM-2
reported property: MIC (µg/mL)
Field: numeric (µg/mL). Do not append units.

# example entries with known answers
molecule	subject of test	unit name	MIC
COc1cc[n+](Cc2ccc(C=CC3=C(C(=O)O)N4C(=O)[C@@H](NC(=O)/C(=N\OC(C)(C)C(=O)O)c5csc(N)n5)[C@H]4SC3)cc2)cc1OC (mixture of isomers)	Isogenic E. coli J58 strain carrying VIM-2	µg/mL	4
CC[N+]1(Cc2ccc(C=CC3=C(C(=O)O)N4C(=O)[C@@H](NC(=O)/C(=N\OC(C)(C)C(=O)O)c5csc(N)n5)[C@H]4SC3)cc2)CCc2cc(O)c(O)cc2C1 (mixture of isomers)	Isogenic E. coli J58 strain carrying VIM-2	µg/mL	0.5
CC(C)(O/N=C(\C(=O)N[C@@H]1C(=O)N2C(C(=O)O)=C(C=Cc3ccc(C[N+](C)(C)Cc4ccc(O)c(O)c4)cc3)CS[C@H]12)c1csc(N)n1)C(=O)O (mixture of isomers)	Isogenic E. coli J58 strain carrying VIM-2	µg/mL	8
CC(C)(O/N=C(\C(=O)N[C@@H]1C(=O)N2C(C(=O)O)=C(C=Cc3ccc(C[N+]4(C)CCc5cc(O)c(O)cc5C4)cc3)CS[C@H]12)c1csc(N)n1)C(=O)O (mixture of isomers)	Isogenic E. coli J58 strain carrying VIM-2	µg/mL	0.5

(Q) Quick one: MIC for C#CC[N+]1(Cc2ccc(C=CC3=C(C(=O)O)N4C(=O)[C@@H](NC(=O)/C(=N\OC(C)(C)C(=O)O)c5csc(N)n5)[C@H]4SC3)cc2)CCc2cc(O)c(O)cc2C1 (mixture of isomers) ?
(A) 0.25
